Biological target: T1, soluble human FcRn (shFcRn) (human, UniProt P55899 24-297; P61769 21-119)
T1 construct: Biotinylated for the ELISA, amine-coupled to a CM5 chip for SPR; also called biotinylated shFcRn
T1 sequence (P55899 24-297 limits assumed, chain 1 of 2): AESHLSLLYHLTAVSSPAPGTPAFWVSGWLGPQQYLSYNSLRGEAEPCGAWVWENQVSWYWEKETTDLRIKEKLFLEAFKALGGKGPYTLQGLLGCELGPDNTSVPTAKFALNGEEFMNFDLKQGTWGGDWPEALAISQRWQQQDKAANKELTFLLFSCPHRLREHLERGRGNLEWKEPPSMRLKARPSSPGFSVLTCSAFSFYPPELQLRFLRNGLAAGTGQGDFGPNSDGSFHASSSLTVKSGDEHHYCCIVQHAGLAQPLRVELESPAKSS
T1 sequence (P61769 21-119 limits assumed, chain 2 of 2): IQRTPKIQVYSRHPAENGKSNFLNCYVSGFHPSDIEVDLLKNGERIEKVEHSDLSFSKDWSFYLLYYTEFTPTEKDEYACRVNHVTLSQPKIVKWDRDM
Assay: SPR pH 7.4; ThienylAla in place of His
property.measured: Kd
State the value with its unit after it.

Ask: Please report the recorded Kd for RFCTGXFGGLYPC (Pen 3; ThienylAla 6; Sar 9; NMeL 10; disulfide 3-13; C-terminal amide) [Peptide No. 251] .
Reply: 3 µM

Attribution: patent US20110059889A1
